The reported measurements were obtained from paper PMC12561453.

Assay: Rat pharmacokinetic study
Type: in vivo
Settings: rat, in vivo, po; male rats, P.O., 10 mg/kg; read-out: Cmax
recordedEndpoint: Cmax (ng/mL)
Express the result in ng/mL but write the number alone.

Fill in the blank: the reported Cmax of O=c1[nH]c(NCc2ccc(F)c(F)c2)nc2cc(Cl)ccc12 is ____.
200

* * *

Tested on: HepG2 cells
Assay: In vitro cytotoxicity, HepG2 viability (resazurin)
Type: cell-based, human
Conditions: HepG2 cells, 24 h, resazurin; read-out: HepG2 IC50
recordedEndpoint: IC50 (µM)
Express the result in µM but write the number alone.

Fill in the blank: the reported IC50 of O=c1[nH]c(Nc2cc(Cl)cc(Cl)c2)nc2cc(Cl)ccc12 is ____.
62.2

* * *

System: S. aureus ATCC25923
Test: Broth microdilution dose-response, S. aureus ATCC25923
Format: cell-based, Staphylococcus aureus
Conditions: Staphylococcus aureus, ATCC25923, methicillin-sensitive strain; OD600 after 18–24 h; read-out: ATCC25923 MIC50
Description: The antistaphylococcal activities (MIC50) of the synthesized compounds were examined via a previously described broth microdilution method against two S. aureus strains: ATCC25923, a methicillin-sensitive reference strain, and JE2, a methicillin-resistant strain of the USA300 lineage (Figure 2, Table 1). Staphylococcus aureus USA300, a methicillin-resistant strain, was obtained from the Nebraska Transposon Mutant Library. […]
For each record, write down the corresponding MIC50.

Fill in the blank: the reported MIC50 of O=c1[nH]c(NCC2CCCCC2)nc2cc(Cl)ccc12 is ____.
35.5 µM

Fill in the blank: the reported MIC50 of O=c1[nH]c(Nc2ccccc2)nc2cc(Cl)ccc12 is ____.
> 100 µM

Fill in the blank: the reported MIC50 of O=c1[nH]c(Nc2cc(Cl)cc(Cl)c2)nc2cc(N3CCOCC3)ccc12 is ____.
> 100 µM

Fill in the blank: the reported MIC50 of O=c1[nH]c(Nc2cccc(Cl)c2)nc2cc(Cl)ccc12 is ____.
2.1 to 4.5 µM

Fill in the blank: the reported MIC50 of O=c1[nH]c(Nc2cc(Cl)cc(Cl)c2)nc2cc([N+](=O)[O-])ccc12 is ____.
3 to 6 µM

Fill in the blank: the reported MIC50 of O=c1[nH]c(Nc2ccc(F)cc2F)nc2cc(Cl)ccc12 is ____.
> 100 µM

Fill in the blank: the reported MIC50 of COc1cccc(Nc2nc3cc(Cl)ccc3c(=O)[nH]2)c1 is ____.
35.1 µM

Fill in the blank: the reported MIC50 of O=c1[nH]c(Nc2cc(Cl)cc(Cl)c2)nc2cc(Cl)c(Cl)cc12 is ____.
3 to 6 µM

Fill in the blank: the reported MIC50 of O=c1[nH]c(Nc2cc(F)cc(F)c2)nc2cc(Cl)ccc12 is ____.
2.1 to 4.5 µM

Fill in the blank: the reported MIC50 of O=c1[nH]c(Nc2cc(Cl)cc(Cl)c2)nc2cc(Cl)ccc12 is ____.
1 µM

Fill in the blank: the reported MIC50 of O=c1[nH]c(Nc2cc(Cl)cc(Cl)c2)nc2c(Cl)c(Cl)ccc12 is ____.
10.8 µM

Fill in the blank: the reported MIC50 of O=c1[nH]c(Nc2ccc(Cl)cc2)nc2cc(Cl)ccc12 is ____.
2.1 to 4.5 µM

Fill in the blank: the reported MIC50 of O=c1[nH]c(Nc2cc(Cl)cc(Cl)c2)nc2cc(F)c(F)cc12 is ____.
3 to 6 µM

Fill in the blank: the reported MIC50 of O=c1[nH]c(NCc2ccc(F)c(F)c2)nc2cc(Cl)ccc12 is ____.
0.36 µM

Fill in the blank: the reported MIC50 of O=c1[nH]c(Nc2ccccc2Cl)nc2cc(Cl)ccc12 is ____.
> 100 µM

Fill in the blank: the reported MIC50 of O=c1[nH]c(Nc2cc(Cl)cc(Cl)c2)nc2c(Cl)cc(Cl)cc12 is ____.
3 to 6 µM

Fill in the blank: the reported MIC50 of O=c1[nH]c(Nc2cccc(C(F)(F)F)c2)nc2cc(Cl)ccc12 is ____.
2.1 to 4.5 µM

Fill in the blank: the reported MIC50 of O=c1[nH]c(NCc2ccc(Cl)cc2Cl)nc2cc(Cl)ccc12 is ____.
2.1 to 4.5 µM

* * *

Experiment: Plasma protein binding, rat
Assay type: in vitro ADME
Details: read-out: PPB rat, plasma protein binding rate (converted)
recordedEndpoint: fraction unbound at 5 μM
Note: the reply should be a number with no unit written.

Fill in the blank: the reported fraction unbound at 5 μM of O=c1[nH]c(NCc2ccc(F)c(F)c2)nc2cc(Cl)ccc12 is ____.
0.005

Fill in the blank: the reported fraction unbound at 5 μM of O=c1[nH]c(Nc2cc(Cl)cc(Cl)c2)nc2cc(Cl)ccc12 is ____.
0.001

* * *

Assay: Rat pharmacokinetic study
Format: in vivo
Details: rat, in vivo, iv; male rats, I.V., 5 mg/kg; read-out: Vss
recordedEndpoint: Vd (L/kg)
Express the result in L/kg but write the number alone.

Fill in the blank: the reported Vd of O=c1[nH]c(NCc2ccc(F)c(F)c2)nc2cc(Cl)ccc12 [6y] is ____.
5.2

* * *

Assay: Cytotoxicity in VERO cells
Type: cell-based
Details: African green monkey, VERO cells (kidney cell line)
recordedEndpoint: IC50 (µM)
Express the result in µM but write the number alone.

Fill in the blank: the reported IC50 of O=c1[nH]c(NCc2ccc(F)c(F)c2)nc2cc(Cl)ccc12 is ____.
50.5

Fill in the blank: the reported IC50 of O=c1[nH]c(Nc2cc(Cl)cc(Cl)c2)nc2cc(Cl)ccc12 is ____.
8.5

* * *

For each record, write down the corresponding IC50.
Assay: in vitro
Assay type: cell-based
Conditions: Chinese hamster
Be sure to follow the number with its unit.

Fill in the blank: the reported IC50 of O=c1[nH]c(Nc2cc(Cl)cc(Cl)c2)nc2cc(Cl)ccc12 [6l] is ____.
11 µM

Fill in the blank: the reported IC50 of O=c1[nH]c(NCc2ccc(F)c(F)c2)nc2cc(Cl)ccc12 [6y] is ____.
51.6 µM
